Biological target: PKR T384W (Homo sapiens, UniProt P30613, T384W)
Sequence (P30613 whole entry T384W): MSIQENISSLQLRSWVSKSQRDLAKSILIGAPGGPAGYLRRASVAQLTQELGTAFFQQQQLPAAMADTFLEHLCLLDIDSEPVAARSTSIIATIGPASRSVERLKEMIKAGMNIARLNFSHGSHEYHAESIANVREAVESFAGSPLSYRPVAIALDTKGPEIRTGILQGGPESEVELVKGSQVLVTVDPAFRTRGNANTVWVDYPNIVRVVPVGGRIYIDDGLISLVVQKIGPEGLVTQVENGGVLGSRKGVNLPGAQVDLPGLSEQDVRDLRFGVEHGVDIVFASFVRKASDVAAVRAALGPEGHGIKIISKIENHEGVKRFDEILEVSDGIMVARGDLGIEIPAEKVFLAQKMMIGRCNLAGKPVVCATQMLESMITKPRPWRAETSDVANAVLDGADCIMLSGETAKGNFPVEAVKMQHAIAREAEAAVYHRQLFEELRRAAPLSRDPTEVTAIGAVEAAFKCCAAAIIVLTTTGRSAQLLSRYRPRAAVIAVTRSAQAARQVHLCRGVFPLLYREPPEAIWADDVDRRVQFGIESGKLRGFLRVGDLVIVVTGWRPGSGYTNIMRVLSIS
Test: PKR T384W Single Point Percent Activation Assay
Assay type: biochemical
Details: read-out: Act. % 384W
Description: PKR T384W Single Point Percent Activation Assay A compound described herein was diluted with DMSO and tested at 1 μM concentration. The enzyme was diluted in 1× Buffer: (100 mM KCl, 50 mM Tris 7.5, 5 mM MgCl2, 1 mM DTT, 0.03% BSA). 2 μL of compound solution was first added into wells, and then 180 μL enzyme solution was added. […] 20 μL ADP was added to start the assay and assay output was evaluated using OD340 at SpectraMax. […]
Task for the reader: assign each of the following molecules its reported activation at 1 µM.

Enquiry: Query (molecule): C[C@H]1CN(C(=O)c2ccccn2)CCN1C(=O)c1ccc(NS(=O)(=O)c2cccc3cccnc23)cc1 ; field requested: activation at 1 µM
Return: 1 to 100%

Enquiry: Query (molecule): C[C@@H]1CN(C(=O)c2ccc(NS(=O)(=O)c3cccc4cccnc34)cc2)CCN1Cc1ccccc1 ; field requested: activation at 1 µM
Return: 101 to 500%

Enquiry: Query (molecule): C[C@@H]1CN(Cc2cc(F)c(F)c(F)c2)CCN1C(=O)c1ccc(NS(=O)(=O)c2cccc3cccnc23)cc1 ; field requested: activation at 1 µM
Return: 1 to 100%

Enquiry: Query (molecule): C[C@@H]1CN(Cc2ccc(F)cc2)CCN1C(=O)c1ccc(NS(=O)(=O)c2cccc3cccnc23)cc1 ; field requested: activation at 1 µM
Return: 101 to 500%

Enquiry: Query (molecule): CC(c1cc(F)cc(F)c1)N1CCN(C(=O)c2ccc(NS(=O)(=O)c3cccc4cccnc34)cc2)[C@@H](C)C1 (some centres unmarked) ; field requested: activation at 1 µM
Return: 1 to 100%

----------
Biological target: PKR R510Q (Homo sapiens, UniProt P30613, R510Q)
Sequence (P30613 whole entry R510Q): as the sequence (P30613 whole entry T384W) above, with W384T, R510Q counted along it
Experiment: PKR R510Q Single Point Percent Activation Assay
Type: biochemical
Details: read-out: Act. % 510Q
Method: PKR R510Q Single Point Percent Activation Assay A compound described herein was diluted with DMSO and tested at 1 μM concentration. The enzyme was diluted in 1× Buffer: (100 mM KCl, 50 mM Tris 7.5, 5 mM MgCl2, 1 mM DTT, 0.03% BSA). 2 μL of compound solution was first added into wells, and then 180 μL of enzyme solution was added. […] 20 μL ADP was added to start the assay and assay output was evaluated using OD340 at SpectraMax. […]
Attribute Measured: activation at 1 µM

Enquiry: Give the reported activation at 1 µM for CC(c1ccc(F)cc1)N1CCN(C(=O)c2ccc(NS(=O)(=O)c3cccc4cccnc34)cc2)[C@H](C)C1 (stereo partly drawn) (system: PKR R510Q (Homo sapiens, UniProt P30613, R510Q)).
Return: 101 to 500%

Enquiry: Give the reported activation at 1 µM for C[C@@H]1CN(CC2CCOC2)CCN1C(=O)c1ccc(NS(=O)(=O)c2cccc3cccnc23)cc1 (stereo partly drawn) (system: PKR R510Q (Homo sapiens, UniProt P30613, R510Q)).
Return: 101 to 500%

Enquiry: Give the reported activation at 1 µM for C[C@@H]1CN(CC2CC2)CCN1C(=O)c1ccc(NS(=O)(=O)c2cccc3cccnc23)cc1 (system: PKR R510Q (Homo sapiens, UniProt P30613, R510Q)).
Return: 101 to 500%

Enquiry: Give the reported activation at 1 µM for C[C@H]1CN(CC2CCC2)CCN1C(=O)c1ccc(NS(=O)(=O)c2cccc3cccnc23)cc1 (system: PKR R510Q (Homo sapiens, UniProt P30613, R510Q)).
Return: 101 to 500%

Enquiry: Give the reported activation at 1 µM for C[C@@H]1CN(C(=O)OC2CCOCC2)CCN1C(=O)c1ccc(NS(=O)(=O)c2cccc3cccnc23)cc1 (system: PKR R510Q (Homo sapiens, UniProt P30613, R510Q)).
Return: 1 to 100%

Enquiry: Give the reported activation at 1 µM for C[C@H]1CN(Cc2cc(F)cc(F)c2)CCN1C(=O)c1ccc(NS(=O)(=O)c2cccc3cccnc23)cc1Cl (system: PKR R510Q (Homo sapiens, UniProt P30613, R510Q)).
Return: 101 to 500%

Enquiry: Give the reported activation at 1 µM for C[C@H]1CN(C(=O)c2ccc(NS(=O)(=O)c3cccc4cccnc34)cc2)CCN1C(=O)c1ccccn1 (system: PKR R510Q (Homo sapiens, UniProt P30613, R510Q)).
Return: 1 to 100%

Enquiry: Give the reported activation at 1 µM for CC(C)OC(=O)N1[C@H](C)CN(C(=O)c2ccc(NS(=O)(=O)c3cccc4cccnc34)cc2)C[C@@H]1C (system: PKR R510Q (Homo sapiens, UniProt P30613, R510Q)).
Return: 101 to 500%

Enquiry: Give the reported activation at 1 µM for C[C@@H]1CN(C(=O)OCC2CC2)CCN1C(=O)c1ccc(NS(=O)(=O)c2cccc3cccnc23)cc1 (system: PKR R510Q (Homo sapiens, UniProt P30613, R510Q)).
Return: 1 to 100%

Enquiry: Give the reported activation at 1 µM for CC1CN(CC2CC2)CC(C)N1C(=O)c1ccc(NS(=O)(=O)c2cccc3cccnc23)cc1 (stereo not drawn) (system: PKR R510Q (Homo sapiens, UniProt P30613, R510Q)).
Return: 1 to 100%

Enquiry: Give the reported activation at 1 µM for CC1CN(CC2CCOC2)CC(C)N1C(=O)c1ccc(NS(=O)(=O)c2cccc3cccnc23)cc1 (stereo not drawn) (system: PKR R510Q (Homo sapiens, UniProt P30613, R510Q)).
Return: 101 to 500%

Enquiry: Give the reported activation at 1 µM for O=C(c1ccc(NS(=O)(=O)c2cccc3cccnc23)cc1)N1CC2CCC(C1)N2Cc1ccc(F)cc1 (system: PKR R510Q (Homo sapiens, UniProt P30613, R510Q)).
Return: 101 to 500%

----------
Molecular target: PKR wt (Homo sapiens)
Sequence (P30613 whole entry): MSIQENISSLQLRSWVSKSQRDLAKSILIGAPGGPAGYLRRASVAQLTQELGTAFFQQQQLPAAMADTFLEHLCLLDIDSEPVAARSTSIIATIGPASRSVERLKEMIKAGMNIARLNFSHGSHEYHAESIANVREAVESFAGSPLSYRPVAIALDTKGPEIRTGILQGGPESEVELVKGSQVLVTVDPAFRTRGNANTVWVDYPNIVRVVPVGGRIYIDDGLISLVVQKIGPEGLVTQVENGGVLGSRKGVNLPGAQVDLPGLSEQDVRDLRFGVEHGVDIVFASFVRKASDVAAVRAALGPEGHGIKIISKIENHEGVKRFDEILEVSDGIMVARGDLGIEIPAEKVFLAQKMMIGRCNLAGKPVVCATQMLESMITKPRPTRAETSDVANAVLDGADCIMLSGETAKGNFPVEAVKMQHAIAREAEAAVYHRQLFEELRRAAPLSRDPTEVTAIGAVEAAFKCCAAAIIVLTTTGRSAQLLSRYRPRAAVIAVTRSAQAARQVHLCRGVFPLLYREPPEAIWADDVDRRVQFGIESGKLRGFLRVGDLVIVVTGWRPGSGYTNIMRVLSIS
Assay: PKR WT Single Point Percent Activation Assay
Format: biochemical
Method: PKR WT Single Point Percent Activation Assay A compound described herein was diluted with DMSO and tested at 1 μM concentration. The enzyme was diluted in 1× Buffer: (100 mM KCl, 50 mM Tris 7.5, 5 mM MgCl2, 1 mM DTT, 0.03% BSA). 2 μL of compound solution was first added into wells, and then 180 μL of enzyme solution was added. […] 20 μL ADP was added to start the assay and assay output was evaluated using OD340 at SpectraMax. […]
Task for the reader: assign each of the following compounds its reported activation at 1 µM.

Enquiry: Query (compound): O=C(c1ccc(NS(=O)(=O)c2cccc3cccnc23)cc1)N1CCN(C[C@@H]2CCOC2)CC1 ; field requested: activation at 1 µM
Return: 1 to 100%

Enquiry: Query (compound): O=C(c1ccc(NS(=O)(=O)c2cccc3cccnc23)cc1)N1C2CCC1CN(Cc1ccccc1)C2 ; field requested: activation at 1 µM
Return: 101 to 500%

Enquiry: Query (compound): C[C@@H]1CN(C(=O)OC2CCOCC2)CCN1C(=O)c1ccc(NS(=O)(=O)c2cccc3cccnc23)cc1 ; field requested: activation at 1 µM
Return: 1 to 100%

Enquiry: Query (compound): C[C@@H]1CN(Cc2ccc(F)cc2)CCN1C(=O)c1ccc(NS(=O)(=O)c2cccc3cccnc23)cc1 ; field requested: activation at 1 µM
Return: 101 to 500%

Enquiry: Query (compound): CC(c1ccc(Cl)c(F)c1)N1CCN(C(=O)c2ccc(NS(=O)(=O)c3cccc4cccnc34)cc2)[C@@H](C)C1 (some centres unmarked) ; field requested: activation at 1 µM
Return: 1 to 100%
